# Tested on: MS2 coat protein
# assay_details: apparent KD of MS2 coat protein; designed switch direction (-1 OFF switch, 1 ON switch): -1; higher = weaker reporter binding
# study_conditions: input ligand: microRNA oligo, concentration not stated
measured_property: apparent KD of MS2 coat protein (nM)
Only the number, expressed in nM, is required.

Worked examples, 3 sequences total:
Query string: Need apparent KD of MS2 coat protein, item AGCUGUGGCCGAGGAUAUGACAUGAGGAUCACCCAUGUACACGAUUAGGCCUGGUAACAGGCUCAUCAGAAGGCGGUCUCAGCA [Eli eng2 - 017] (Eterna round: R96, puzzle: Exclusion NG 2)
Result string: 10.4

Query string: Need apparent KD of MS2 coat protein, item GUGAAGUAAGGAUAUAGUGGAAAAGAUAAGGUAUGAGAGUUCUAGAAGGUACAUGAGGAUCACCCAUGUUAGGG [JR_Exclu4_Sub085] (Eterna round: R96, puzzle: Exclusion 4)
Result string: 212

Query string: Need apparent KD of MS2 coat protein, item GAUCCACAUGAGGAUCACCCAUGUGAGGAUAUGAUACUAUGUACUUCGGUACAUAGUAUCAGAAGGCACAGGUC [Ex1-3: 56] (Eterna round: R96, puzzle: Exclusion 1)
Result string: 50.7

Continuing:
Query string: Need apparent KD of MS2 coat protein, item UAUGGGUCUACAGGAUAUUCCAGUAGAUAGAAGGGAGAAGGGUGGGCCUAUACUUGAGGAUCACCCAAGUGAAAAGGGUCAUCC [Mutated MS2 EX1.13] (Eterna round: R96, puzzle: Exclusion NG 1)
Result string: 24.8

Query string: Need apparent KD of MS2 coat protein, item UGAGUGCUGCGAGGAUAUACAUGAGGAUCACCCAUGUAAUCGUCUGAGGCAAAGCCUCAGACGAAGUAGAAGGCGCAGUACUCU [Mat - Exclusion NG 2 - Mod of JL - D26] (Eterna round: R96, puzzle: Exclusion NG 2)
Result string: 11.5
